Exercise: state measured kon for each of the binders provided.
Target: T1, biotinylated CD3 epsilon:delta heterodimer protein (Amsbio AMS.CDD-H52WO) (Homo sapiens (Human), UniProt P07766 23-126; P04234 22-105)
T1 construct: also called CD3 heterodimer
Assay: BLI (Octet), CD3 on SA sensor, Fab analyte;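 also: biolayer interferometry with biotinylated CD3 epsilon:delta captured on streptavidin sensors, Fab analyte at several concentrations up to 300 nM, 100 s association then 300 s dissociation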
The reply should contain only the number, in M⁻¹ s⁻¹.

Request: Would you mind telling me what kon value was observed for huSP34.2.2 Fab-HF (Fab, V domains shown, also called HC2+LC2) VH: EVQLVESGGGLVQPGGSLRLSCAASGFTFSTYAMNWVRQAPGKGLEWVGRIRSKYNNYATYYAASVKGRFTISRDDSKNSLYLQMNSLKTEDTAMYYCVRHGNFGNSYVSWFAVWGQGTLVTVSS VL: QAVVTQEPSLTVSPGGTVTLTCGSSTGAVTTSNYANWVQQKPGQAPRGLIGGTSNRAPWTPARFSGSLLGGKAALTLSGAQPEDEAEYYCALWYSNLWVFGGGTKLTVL ?
Result: 609000

Request: # query: kon of entry huSP34.2.6 Fab-HF (Fab, V domains shown, also called HC2+LC6) VH: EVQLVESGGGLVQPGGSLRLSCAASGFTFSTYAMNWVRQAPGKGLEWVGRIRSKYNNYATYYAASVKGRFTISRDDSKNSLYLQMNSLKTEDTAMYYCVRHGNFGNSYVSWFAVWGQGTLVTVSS VL: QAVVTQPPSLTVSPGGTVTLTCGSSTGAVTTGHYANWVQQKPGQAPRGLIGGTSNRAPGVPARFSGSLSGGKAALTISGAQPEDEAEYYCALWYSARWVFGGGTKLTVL
Result: 351000

Request: Quick one: kon for huSP34.5.4 Fab-HF (Fab, V domains shown, also called HC5+LC4) VH: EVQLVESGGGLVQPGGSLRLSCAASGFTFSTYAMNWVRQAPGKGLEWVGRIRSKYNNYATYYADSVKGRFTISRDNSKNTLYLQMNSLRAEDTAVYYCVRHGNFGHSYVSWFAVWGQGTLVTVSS VL: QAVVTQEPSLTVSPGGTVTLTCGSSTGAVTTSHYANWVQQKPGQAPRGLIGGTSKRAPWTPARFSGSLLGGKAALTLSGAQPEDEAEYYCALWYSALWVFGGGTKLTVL ?
Result: 429000
